Assignment: determine reported inhibition for the given compounds.
# assay-system: Vasoactive intestinal polypeptide receptor 2 (Homo sapiens)
# measurement-description: Antagonist activity at recombinant human N-terminal signal peptide/FLAG epitope-tagged Rluc8-fused VIPR2 expressed in HEK293 cells assessed as inhibition of VIP-induced human mVenus-beta-arrestin2 binding at 5 uM preincubated for 5 mins with luciferin, coelenterazine H followed by VIP addition measured after 5 mins by BRET assay relative to control
# Type: cell-based

Reported inhibition, compound C[C@H](CC(C)(C)C)NC(=O)[C@@H](Cc1ccccc1)C[C@H](O)CNS(=O)(=O)c1ccc([N+](=O)[O-])cc1 : ____
20.2%

Also CCN(CC)C(=O)c1ccc(S(=O)(=O)NC[C@@H](O)C[C@@H](Cc2ccccc2)C(=O)N[C@H]2c3ccccc3C[C@H]2O)cc1 , if possible.
-1.2%

Also CNc1ccc(S(=O)(=O)NC[C@@H](O)C[C@@H](Cc2ccccc2)C(=O)N[C@H]2c3ccccc3C[C@H]2O)cc1 , if possible.
4.3%

Also CCN(CC)C(=O)[C@@H](Cc1ccccc1)C[C@H](O)CNS(=O)(=O)c1ccc([N+](=O)[O-])cc1 , if possible.
-2.7%

Also COc1cc(C(=O)NC[C@@H](O)C[C@@H](Cc2ccccc2)C(=O)N[C@H]2c3ccccc3C[C@H]2O)cc(OC)c1OC , if possible.
18%

Also O=C(NC1CCCC1)[C@@H](Cc1ccccc1)C[C@H](O)CNS(=O)(=O)c1ccc([N+](=O)[O-])cc1 , if possible.
1.3%

Also O=C(CCl)NC[C@@H](O)C[C@@H](Cc1ccccc1)C(=O)N[C@H]1c2ccccc2C[C@H]1O , if possible.
17.5%
